Entry source: PubChem BioAssay

Would you mind telling me the reported composite z-score of each entry?
Experiment: binders from COS7 lysate, DM2A8 probe, primary screen, torsin A project, cell lysate, small-molecule microarray, fluorescence 635/667 (AID 1065)
Conditions: higher = more signal, COS7 lysate expressing mutant human TOR1A
When you answer, write just the number.

INPUT: Need composite z-score of NC(=O)N1C(=O)C2C(C1=O)C1C=C(c3ccc(CO)cc3)C2C(C2CC2)N1Cc1cc2c(cc1Br)OCO2 (stereo not drawn) , thanks.
OUTPUT: 0.778

INPUT: CCCCC(=C=CC[C@@H](O)c1ccc(OCCO)cc1)C[C@@H](O)c1cc(Cl)cc(Cl)c1O ?
OUTPUT: 0.0464

INPUT: C[N+](C)(C)CCCC[C@@H]1NC(=O)[C@@H]2C[C@H](C(=O)NCCCCCNC(=O)CS)[C@H](c3ccc(O)cc3)N2C1=O ?
OUTPUT: 0.338

INPUT: O=C(NCc1ccccc1)[C@@H]1c2ccccc2C(=O)N(Cc2ccccc2Cl)[C@H]1c1ccc(CO)cc1 ?
OUTPUT: 0.658

INPUT: CC(C)C(CO)N1C(=O)[C@@H]2C3C(=O)OCCC/C=C\[C@H]3OC23C=CCN(C(C)C)C(=O)[C@@H]13 (stereo partly drawn) ?
OUTPUT: 0.716

INPUT: CC(=O)OC(C/C=C\B1OC(C)(C)C(C)(C)O1)c1ccccc1 (stereo not drawn) ?
OUTPUT: 0.0193

INPUT: COc1ccc([Si](C)(C)[C@H]2[C@H](CC(=O)N3Cc4ccccc4C[C@H]3CO)O[C@@]3(C(=O)N(Cc4cccc(N5C(=O)COc6ccccc65)c4)c4ccccc43)[C@@H]2C)cc1 ?
OUTPUT: 0.572

INPUT: COC(=O)c1c2oc(c1C(=O)OC)C(=O)N[C@@H](C(C)C)Cn1nncc1C1(CCCCC1)NC(=O)N[C@H](CO)CC2 ?
OUTPUT: 0.178
